Provenance of the data: patent US7763611B2

Answer each item with its documented pIC50.
tested_on: TF/FVIIa (Homo sapiens)
Sequence (P08709 213-466 limits assumed): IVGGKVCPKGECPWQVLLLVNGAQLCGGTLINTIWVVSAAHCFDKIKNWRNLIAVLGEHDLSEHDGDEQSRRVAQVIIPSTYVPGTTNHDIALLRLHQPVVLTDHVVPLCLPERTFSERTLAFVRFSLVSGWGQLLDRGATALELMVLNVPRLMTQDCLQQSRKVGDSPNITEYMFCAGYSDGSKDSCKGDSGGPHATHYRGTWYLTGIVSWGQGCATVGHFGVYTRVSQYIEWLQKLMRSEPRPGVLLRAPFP
Sequence (P08709 61-212 limits assumed): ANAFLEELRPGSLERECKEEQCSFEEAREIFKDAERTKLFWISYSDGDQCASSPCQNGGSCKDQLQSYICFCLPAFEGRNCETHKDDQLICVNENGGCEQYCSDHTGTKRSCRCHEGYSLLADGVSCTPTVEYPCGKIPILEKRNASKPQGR
Sequence (P13726 33-295 partner): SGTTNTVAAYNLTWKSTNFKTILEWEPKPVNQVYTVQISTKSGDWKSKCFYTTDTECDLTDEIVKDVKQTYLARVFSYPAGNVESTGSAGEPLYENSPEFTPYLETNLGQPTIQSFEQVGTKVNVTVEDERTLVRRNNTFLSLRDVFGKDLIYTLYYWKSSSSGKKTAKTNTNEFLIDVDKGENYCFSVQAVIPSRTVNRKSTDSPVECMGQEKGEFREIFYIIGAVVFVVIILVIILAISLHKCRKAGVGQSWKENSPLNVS
assay_procedure: TF/FVIIa inhibition (TF/FVIIa-IC50)
Type: biochemical
Numbers only, as −log10 of the molar value.

Illustrative cases are given below, each with its answer.
C#CCN(NC(=O)c1ccc(Cl)s1)C(=O)Nc1ccc(N2CCOCC2=O)c(C)c1 [Compound A2]: 6.00
Cc1cc(NC(=O)N(Cc2ccccc2)NC(=O)c2sccc2Cl)ccc1N1CCOCC1=O [Compound A3]: 6.74

Inquiry: Name the recorded pIC50 for CCCN(NC(=O)c1ccc(Cl)s1)C(=O)Nc1ccc(N2CCOCC2=O)cc1 [Compound A1] .
Reply text: 6.08
